- Tested on: SNB-75 CNS
- TEST_DESCRIPTION: NCI tumour cell line growth inhibition, 48 h
REPORTED_METRIC: TGI

Query block: Please give measured TGI of the following entry: O=C1CC(NCCCNC2CC(=O)c3c(Br)sc(Br)c32)c2c(Br)sc(Br)c21 (stereo not given)
Result block: 7.68 µM

Query block: Given the molecule `O=C1NC(=O)/C(=C/c2ccc(S(=O)(=O)N/N=C/c3ccccc3)cc2)N1` , write its reported TGI.
Result block: > 100 µM

Query block: Provide only the value of recorded TGI for `c1ccc(N=C2C(=Nc3ccccc3)N(C3CCCCC3)C(=NC3CCCCC3)N2c2ccccc2)cc1`
Result block: > 100 µM

Query block: # return recorded TGI for input `O=S(=O)(c1ccccc1)[C@@H]1[C@H]2C=C[C@](CS)(O2)[C@H]1S(=O)(=O)c1ccccc1`
Result block: > 100 µM

Query block: Write down TGI measured for item `O=C(/C=C/c1cc(F)ccc1F)OCCc1ccccc1`
Result block: > 100 µM

---

For each record, write down the corresponding TGI.
- System: RXF 393 renal
- TEST_DESCRIPTION: NCI tumour cell line growth inhibition, 48 h
Response body: numeric value in µM, unit text excluded.

Query block: Specify the recorded TGI for `O=C1c2cccc3cccc(c23)C(=O)N1CC#Cc1ccc2c3c(cccc13)C(=O)N(CCN1CCNCC1)C2=O` , system: RXF 393 renal.
Result block: 10.4

Query block: Please report the measured TGI for `Cc1cc(NS(=O)(=O)c2ccc(NC(=O)COc3ccc(-c4cc5ccccc5[nH]4)cc3)cc2)no1` tested on RXF 393 renal.
Result block: 2.6

---

Please go through the items and note down their TGI.
- Test system: RXF 393 renal
- TEST_DESCRIPTION: NCI tumour cell line growth inhibition, 48 h

Query block: Assign TGI to the following record: `CCc1ccc(Oc2nccc(-c3c(-c4ccc(F)cc4)ncn3C3CCNCC3)n2)cc1`
Result block: 7.49 µM

Query block: Input `O=C1NC2(NC(=O)C1=O)Nc1ccccc1S2` , output reported TGI.
Result block: > 100 µM

Query block: # return recorded TGI for input `COC(=O)c1ccc(-n2c(C)nc(=O)c(-c3ccccc3)c2C)cc1`
Result block: > 100 µM

Query block: Tell me measured TGI for O=[N+]([O-])c1ccc(OP(=O)(O)OCC2OC(CP(=O)(O)O)C(O)C2O)cc1 (stereo unspecified) please.
Result block: > 100 µM

Query block: Identify measured TGI corresponding to `O=S(=O)(c1ccccc1)n1cnc(CCc2ccccc2)n1`
Result block: > 100 µM

Query block: Tell me measured TGI for `c1cc2ccc3cc2cc1CNCCOCCNCc1ccc2ccc(cc2c1)CNCCOCCNC3` please.
Result block: > 100 µM

---

Hi there, I'd appreciate the recorded TGI for every entry that follows.
- Test system: NCI-H23 lung
- TEST_DESCRIPTION: NCI tumour cell line growth inhibition, 48 h
Provide only the numeric value, understood in µM.

Query block: GET TGI | system: NCI-H23 lung | item: `Cc1ccc(O)c(-c2cc(-c3ccccc3)nc(/N=C\c3ccccc3)n2)c1`
Result block: 81.5

Query block: Name the recorded TGI of `C=C1C(=O)O[C@H]2[C@H]1CC/C(COC(=O)c1cccc3ccccc13)=C\CC[C@@]1(C)O[C@@H]21` , assay system NCI-H23 lung.
Result block: 3.7
